- system-under-test: Glypican-3 (GPC3) (UniProt P51654;P51654 P51654:25-358,P51654:359-554)
- assay-protocol: flow; GPC3+ HEK293 cells
- conditions: tags: overexpressed in engineered HEK293 cells (GPC3+ HEK293); stem 2 closed with 4-base loop, stem 1 open (new 5' and 3' ends)
quantity-kind: pKd
In simple prose, pKd is minus the logarithm base ten of a concentration in moles per litre.

Problem: Look at this binder and give its reported pKd. CGGGAGUCCUAGGAAGGACGGGUUGCUACCCAAGUCCCG (ssRNA, fully 2'-OMe) [GRX2102]
Solution: 7.57

Data provenance is patent US20250281621A1.
